Values from patent US12545637B2

Exercise: for every item that follows, state its recorded Relative light unit (RLU).
Tested on: 293T cells
Assay: Fluorescent detection of Fluc-mRNA (cell transfection efficiency of LNP formulations)
Assay type: cell-based
Conditions: LNP with 0.3 μg Fluc-mRNA, 96-well plate, 24 hours
Give bare numbers, in RLU.

compound	systemTested	reading
CCCCCCCCCCCOC(=O)CCCN(CCO)CCN(CCO)CCCCCC(=O)OC(CCCCCCCC)CCCCCCCC [YK-407]	293T cells	20385506
CCCCCCCCC(CCCCCCCC)OC(=O)CCCCCN(CCO)CCCN(CCO)CCCCCC(=O)OC(CCCCCCCC)CCCCCCCC [YK-419]	293T cells	3167322
CCCCCCCCCCOC(=O)CCCN(CCO)CCCCCC(=O)OCC(CCCCCCCC)CCCCCCCC [YK-009, reference compound]	293T cells	5146376
CCCCCCCCCCCOC(=O)CCCN(CCO)CCCN(CCO)CCCCCC(=O)OCC(CCCCCCCC)CCCCCCCC [YK-415]	293T cells	298021
CCCCCCCCC(CCCCCCCC)C(=O)OCCCCCCN(CCO)CCCN(CCO)CCCCCCOC(=O)C(CCCCCCCC)CCCCCCCC [YK-412]	293T cells	3371352

Batch of 6 compounds: report Relative light unit (RLU) for each.
1. CCCCCCCCC(CCCCCCCC)OC(=O)CCCCCCCN(CCO)CCCCCCCC(=O)OCCC(CCCCCC)CCCCCC [Compound 21, reference compound]
2. CCCCCCCCCCCOC(=O)CCCN(CCO)CCN(CCO)CCCCCCOC(=O)CC(CCCCCC)CCCCCC [YK-406]
3. CCCCCCCCCCOC(=O)CCCN(CCO)CCN(CCO)CCCC(=O)OC(CCCCCCCC)CCCCCCCC [YK-408]
4. CCCCCCCCC(CCCCCCCC)OC(=O)CCCCCCCN(CCO)CCN(CCO)CCCCCCCC(=O)OC(CCCCCCCC)CCCCCCCC [YK-403]
5. CCCCCCCCC(CCCCCCCC)COC(=O)CCCCCN(CCCO)CCCN(CCCO)CCCCCC(=O)OCC(CCCCCCCC)CCCCCCCC [YK-423]
6. CCCCCCCCC(CCCCCCCC)COC(=O)CCCCCN(CCCO)CCCCN(CCCO)CCCCCC(=O)OCC(CCCCCCCC)CCCCCCCC [YK-424]

Outgoing:
1511024
78251
1474136
5249304
6227115
2883414

----------
Tested on: 293T cells
Experiment: Fluorescent detection of Fluc-mRNA (cell transfection efficiency of LNP formulations)
Assay type: cell-based
Conditions: LNP with 0.3 μg Fluc-mRNA, 96-well plate, 24 hours
readoutName: Relative light unit (RLU)
Answers are plain numbers, in RLU.

Check out these entries, answers already filled in.
molecule	Relative light unit (RLU)
CCCCCCCCCCOC(=O)CCCCCN(CCO)CCN(CCO)CCCCCC(=O)OCC(CCCCCCCC)CCCCCCCC	407868
CCCCCCCCC(CCCCCCCC)COC(=O)CCCCCN(CCCO)CCN(CCCO)CCCCCC(=O)OCC(CCCCCCCC)CCCCCCCC	6432971
CCCCCCCCCCOC(=O)CCCN(CCO)CCCN(CCO)CCCC(=O)OC(CCCCCCCC)CCCCCCCC	444089
CCCCCCCCCCOC(=O)CCCN(CCO)CCCN(CCO)CCCCCCOC(=O)CC(CCCCCC)CCCCCC	111251
CCCCCCCCC(CCCCCCCC)OC(=O)CCCCCN(CCO)CCN(CCO)CCCCCC(=O)OC(CCCCCCCC)CCCCCCCC	5609550

Batch of 2 molecules: report Relative light unit (RLU) for each.
1. CCCCCCCCCCCOC(=O)CCCCCN(CCO)CCCCCCCC(=O)OC(CCCCCCCC)CCCCCCCC [SM-102, reference compound]
2. CCCCCCCCCCCOC(=O)CCCN(CCO)CCN(CCO)CCCCCC(=O)OCC(CCCCCCCC)CCCCCCCC

Outgoing:
1: 1704121; 2: 669807

----------
Assay: Detection of encapsulation efficiency, drug loading concentration and total RNA concentration (RiboGreen)
Type: physicochemical
Settings: ratio vs SM-102
readoutName: drug loading concentration, times that of SM-102
Answers are plain numbers.

Check out these entries, answers already filled in.
CCCCCCCCCCCOC(=O)CCCN(CCO)CCN(CCO)CCCCCC(=O)OC(CCCCCCCC)CCCCCCCC 1.34
CCCCCCCCC(CCCCCCCC)OC(=O)CCCCCN(CCO)CCN(CCO)CCCCCC(=O)OC(CCCCCCCC)CCCCCCCC 1.40
CCCCCCCCC(CCCCCCCC)COC(=O)CCCCCN(CCCO)CCCN(CCCO)CCCCCC(=O)OCC(CCCCCCCC)CCCCCCCC 1.41
CCCCCCCCC(CCCCCCCC)COC(=O)CCCCCN(CCCO)CCN(CCCO)CCCCCC(=O)OCC(CCCCCCCC)CCCCCCCC 1.70

Batch of 2 compounds: report drug loading concentration, times that of SM-102 for each.
1. CCCCCCCCC(CCCCCCCC)OC(=O)CCCCCCCN(CCO)CCN(CCO)CCCCCCCC(=O)OC(CCCCCCCC)CCCCCCCC
2. CCCCCCCCC(CCCCCCCC)C(=O)OCCCCCCN(CCO)CCN(CCO)CCCCCCOC(=O)C(CCCCCCCC)CCCCCCCC

Outgoing:
1.29
1.42

----------
Exercise: for every item that follows, state its recorded drug loading concentration, times that of HIMA.
Test: Detection of encapsulation efficiency, drug loading concentration and total RNA concentration (RiboGreen)
Type: physicochemical
Settings: ratio vs HIMA (HHMA)
Excerpt: Encapsulation efficiency is a key quality attribute of liposomes, which refers to the percentage of drug content encapsulated in the lipid bimolecular layer accounting for the total drug dose and can reflect the degree of drug encapsulation in liposomes. The Chinese Pharmacopoeia stipulates that the encapsulation efficiency should generally not be less than 80%. The drug loading amount is the ratio of the amount of drug in the liposome to the total amount of drug and carrier in the liposome. […]
Numbers only.

Batch of 5 compounds: report drug loading concentration, times that of HIMA for each.
1. CCCCCCCCC(CCCCCCCC)COC(=O)CCCCCN(CCCO)CCN(CCCO)CCCCCC(=O)OCC(CCCCCCCC)CCCCCCCC
2. CCCCCCCCC(CCCCCCCC)OC(=O)CCCCCCCN(CCO)CCN(CCO)CCCCCCCC(=O)OC(CCCCCCCC)CCCCCCCC
3. CCCCCCCCC(CCCCCCCC)C(=O)OCCCCCCN(CCO)CCN(CCO)CCCCCCOC(=O)C(CCCCCCCC)CCCCCCCC
4. CCCCCCCCCCCOC(=O)CCCN(CCO)CCN(CCO)CCCCCC(=O)OC(CCCCCCCC)CCCCCCCC
5. CCCCCCCCC(CCCCCCCC)OC(=O)CCCCCN(CCO)CCN(CCO)CCCCCC(=O)OC(CCCCCCCC)CCCCCCCC

Outgoing:
1. 1.38
2. 1.05
3. 1.15
4. 1.09
5. 1.14

Incoming: Item under review: CCCCCCCCC(CCCCCCCC)COC(=O)CCCCCN(CCCO)CCCN(CCCO)CCCCCC(=O)OCC(CCCCCCCC)CCCCCCCC . Reported drug loading concentration, times that of HIMA?
Outgoing: 1.15

----------
System: 293T cells
Assay: Cell survival rate assay (CCK-8)
Format: cell-based
Settings: LNP with 1.5 μg Fluc-mRNA, 24 hours, CCK-8
Kindly return Yes if reported Cell survival rate is no lower than 50%; return No if it is lower.

compound	systemTested	groupLabel
CCCCCCCCC(CCCCCCCC)COC(=O)CCCCCN(CCCO)CCN(CCCO)CCCCCC(=O)OCC(CCCCCCCC)CCCCCCCC	293T cells	Yes
CCCCCCCCC(CCCCCCCC)OC(=O)CCCCCN(CCO)CCCN(CCO)CCCCCC(=O)OC(CCCCCCCC)CCCCCCCC	293T cells	No
CCCCCCCCCCOC(=O)CCCN(CCO)CCCN(CCO)CCCCCCOC(=O)CC(CCCCCC)CCCCCC	293T cells	No
CCCCCC(CC)OC(=O)CCCCCCCCN(CCO)CCN(CCO)CCCCCCCCC(=O)OC(CC)CCCCC (stereo not shown)	293T cells	No

Incoming: Hi team, for CCCCCCCCC(CCCCCCCC)OC(=O)CCCCCN(CCO)CCCCN(CCO)CCCCCC(=O)OC(CCCCCCCC)CCCCCCCC , is the recorded Cell survival rate at or above 50%?
Outgoing: No

Incoming: Repeat with CCCCCCCCCCOC(=O)CCCCCN(CCO)CCN(CCO)CCCCCC(=O)OCC(CCCCCCCC)CCCCCCCC
Outgoing: No

----------
Exercise: for every item that follows, state its recorded expression amount in mice, times that of YK-417.
System: female BALB/C mice
Test: In vivo imaging in mice of Fluc-mRNA LNP formulations (mRNA expression and duration)
Conditions: 6 h
Answers are plain numbers.

Check out these entries, answers already filled in.
CCCCCCCCC(CCCCCCCC)OC(=O)CCCCCN(CCO)CCN(CCO)CCCCCC(=O)OC(CCCCCCCC)CCCCCCCC 25.75
CCCCCCCCC(CCCCCCCC)COC(=O)CCCCCN(CCCO)CCCN(CCCO)CCCCCC(=O)OCC(CCCCCCCC)CCCCCCCC 26.91
CCCCCCCCC(CCCCCCCC)COC(=O)CCCCCN(CCCO)CCN(CCCO)CCCCCC(=O)OCC(CCCCCCCC)CCCCCCCC 21.98
CCCCCCCCC(CCCCCCCC)OC(=O)CCCCCCCN(CCO)CCN(CCO)CCCCCCCC(=O)OC(CCCCCCCC)CCCCCCCC 26.26
CCCCCCCCC(CCCCCCCC)C(=O)OCCCCCCN(CCO)CCN(CCO)CCCCCCOC(=O)C(CCCCCCCC)CCCCCCCC 24.31

Kindly consider the entry below.
Incoming: Item under review: CCCCCCCCCCCOC(=O)CCCN(CCO)CCN(CCO)CCCCCC(=O)OC(CCCCCCCC)CCCCCCCC . Reported expression amount in mice, times that of YK-417?
Outgoing: 66.16
